# Tested on: C57/BL6 mice fed MCD diet
# test: Pharmacodynamic test in methionine-choline deficient diet (MCD) model of non-alcoholic fatty liver disease
# Assay type: in vivo
# condition set: MCD mice, 1 week; TM compounds 30 mpk, obeticholic acid 40 mpk, once daily by gavage
Please provide measured Weight, 1 week for the entries that follow.
One number for each entry, in g.

Each compound below has a reported value. Please supply its Weight, 1 week.
1. O=C(O)c1cccc(C2CC(O)(c3cnc(OCc4c(-c5c(Cl)cccc5Cl)noc4C4CC4)cn3)C2)c1 (centres unmarked)
2. CC(C)c1onc(-c2c(Cl)cccc2Cl)c1COc1cnc(C2(O)CC(c3cccc(C(=O)O)c3)C2)cn1 (centres unmarked)
3. CC[C@H]1[C@@H](O)[C@@H]2[C@H](CC[C@]3(C)[C@@H]([C@H](C)CCC(=O)O)CC[C@@H]23)[C@@]2(C)CC[C@@H](O)C[C@@H]12 [obeticholic acid, reference compound]
4. O=C(O)c1cccc(N2CC(O)(c3cnc(OCc4c(-c5c(Cl)cccc5Cl)noc4C4CC4)cn3)C2)c1
5. Cc1cc(C(=O)O)cc(C2CC(O)(c3cnc(OCc4c(-c5c(Cl)cccc5Cl)noc4C(C)C)cn3)C2)c1 (centres unmarked)

stdout:
1: 21.24; 2: 21.36; 3: 21.28; 4: 21.52; 5: 21.26

* * *

# test: in vitro
# condition set: human, Caco-2, Papp B-A, Average
measure name: Papp B→A (×10⁻⁶ cm/s)
Give bare numbers, in ×10⁻⁶ cm/s.

stdin: Name the recorded Papp B→A for O=C(O)c1cccc(C2CC(O)(c3ccc(OCc4c(-c5c(Cl)cccc5Cl)noc4C4CC4)cc3Cl)C2)c1 (stereo not shown) [Compound M3, reference compound] .
stdout: 11.6

* * *

# test: Caco-2 monolayer cell membrane transport experiment
# condition set: human, Caco-2, Papp A-B, Caco-2 cell line (21 days), Table 5
measure name: Papp A→B

stdin: Name the recorded Papp A→B for C[C@H]1O[C@@H](O[C@H]2[C@@H](O)C[C@H](O[C@H]3[C@@H](O)C[C@H](O[C@H]4CC[C@@]5(C)[C@H](CC[C@@H]6[C@@H]5C[C@@H](O)[C@]5(C)[C@@H](C7=CC(=O)OC7)CC[C@]65O)C4)O[C@@H]3C)O[C@@H]2C)C[C@H](O)[C@@H]1O [Digoxin, digoxin, reference compound] .
stdout: < 0.04 ×10⁻⁶ cm/s

* * *

# test: Caco-2 monolayer cell membrane transport experiment
# condition set: human, Caco-2, Papp B-A, Sample-01, Caco-2, B-A, Sample-01
measure name: Papp B→A (×10⁻⁶ cm/s)
Give bare numbers, in ×10⁻⁶ cm/s.

stdin: Name the recorded Papp B→A for C[C@H]1O[C@@H](O[C@H]2[C@@H](O)C[C@H](O[C@H]3[C@@H](O)C[C@H](O[C@H]4CC[C@@]5(C)[C@H](CC[C@@H]6[C@@H]5C[C@@H](O)[C@]5(C)[C@@H](C7=CC(=O)OC7)CC[C@]65O)C4)O[C@@H]3C)O[C@@H]2C)C[C@H](O)[C@@H]1O [Digoxin, digoxin, reference compound] .
stdout: 11.7

* * *

# Test system: C57/BL6 mice fed MCD diet
# test: Pharmacodynamic test in methionine-choline deficient diet (MCD) model of non-alcoholic fatty liver disease
# Assay type: in vivo
# condition set: MCD mice, 1 week; TM 30 mpk, obeticholic acid 40 mpk, gavage
Please provide measured Food intake, 1 week for the entries that follow.
Give bare numbers, in g.

Example entries begin here.
compound="O=C(O)c1cccc(C2CC(O)(c3cnc(OCc4c(-c5c(Cl)cccc5Cl)noc4C4CC4)cn3)C2)c1 (centres unmarked) [TM-01]" measure_name="Food intake, 1 week" recorded_measurement=3.011
compound="O=C(O)c1cccc(N2CC(O)(c3cnc(OCc4c(-c5c(Cl)cccc5Cl)noc4C4CC4)cn3)C2)c1 [TM-02]" measure_name="Food intake, 1 week" recorded_measurement=2.190
compound="Cc1cc(C(=O)O)cc(C2CC(O)(c3cnc(OCc4c(-c5c(Cl)cccc5Cl)noc4C(C)C)cn3)C2)c1 (centres unmarked) [TM-09]" measure_name="Food intake, 1 week" recorded_measurement=2.364

Each compound below has a reported value. Please supply its Food intake, 1 week.
1. CC[C@H]1[C@@H](O)[C@@H]2[C@H](CC[C@]3(C)[C@@H]([C@H](C)CCC(=O)O)CC[C@@H]23)[C@@]2(C)CC[C@@H](O)C[C@@H]12 [obeticholic acid, reference compound]
2. CC(C)c1onc(-c2c(Cl)cccc2Cl)c1COc1cnc(C2(O)CC(c3cccc(C(=O)O)c3)C2)cn1 (centres unmarked) [TM-06]

stdout:
1: 2.992; 2: 2.356

* * *

# test: in vitro
# condition set: human, Caco-2, Recovery rate B-A, Sample-02
measure name: recovery (%)
Numbers only, in %.

stdin: Name the recorded recovery for O=C(O)c1cccc(C2CC(O)(c3ccc(OCc4c(-c5c(Cl)cccc5Cl)noc4C4CC4)cc3Cl)C2)c1 (stereo not shown) [Compound M3, reference compound] .
stdout: 35.6

* * *

# System: C57/BL6 mice fed MCD diet
# test: Pharmacodynamic test in methionine-choline deficient diet (MCD) model of non-alcoholic fatty liver disease
# Assay type: in vivo
# condition set: MCD mice, 0 week; TM compounds 30 mpk, obeticholic acid 40 mpk, once daily by gavage
Please provide measured Weight, 0 week for the entries that follow.
Kindly report the value followed by its unit.

Example entries begin here.
molecule="O=C(O)c1cccc(C2CC(O)(c3cnc(OCc4c(-c5c(Cl)cccc5Cl)noc4C4CC4)cn3)C2)c1 (centres unmarked)" recorded_measurement="23.78 ± 0.47 g"
molecule="Cc1cc(C(=O)O)cc(C2CC(O)(c3cnc(OCc4c(-c5c(Cl)cccc5Cl)noc4C(C)C)cn3)C2)c1 (centres unmarked)" recorded_measurement="23.60 ± 0.29 g"
molecule=O=C(O)c1cccc(N2CC(O)(c3cnc(OCc4c(-c5c(Cl)cccc5Cl)noc4C4CC4)cn3)C2)c1 recorded_measurement="23.71 ± 0.35 g"
molecule="CC[C@H]1[C@@H](O)[C@@H]2[C@H](CC[C@]3(C)[C@@H]([C@H](C)CCC(=O)O)CC[C@@H]23)[C@@]2(C)CC[C@@H](O)C[C@@H]12 [obeticholic acid, reference compound]" recorded_measurement="23.72 ± 0.46 g"

Shifting focus to the molecule that follows.
stdin: Name the recorded Weight, 0 week for CC(C)c1onc(-c2c(Cl)cccc2Cl)c1COc1cnc(C2(O)CC(c3cccc(C(=O)O)c3)C2)cn1 (centres unmarked) .
stdout: 23.75 ± 0.27 g

* * *

# test: in vitro
# condition set: human, Caco-2, Papp B-A
# Experimental: The bi-directional transport of target compounds from apical side (AP) to basolateral side (BL) and from BL side to AP side is studied by using human colon adenocarcinoma cell line Caco-2 monolayer model. The transport parameters, apparent permeability coefficient (Papp) and efflux ratio are calculated by quantitative analysis with high performance liquid chromatography (HPLC).
measure name: Papp B→A (×10⁻⁶ cm/s)
Give bare numbers, in ×10⁻⁶ cm/s.

Example entries begin here.
molecule="Cc1cc(C(=O)O)cc(C2CC(O)(c3cnc(OCc4c(-c5c(Cl)cccc5Cl)noc4C(C)C)cn3)C2)c1 (stereo not drawn)" unit_tag="×10⁻⁶ cm/s" recorded_measurement=29.2
molecule="Cc1cc(C(=O)O)cc(C2CC(O)(c3cnc(OCc4c(-c5c(Cl)cccc5Cl)noc4C4CC4)cn3)C2)c1 (stereo not drawn)" unit_tag="×10⁻⁶ cm/s" recorded_measurement=9.89
molecule="CC(C)c1onc(-c2c(Cl)cccc2Cl)c1COc1cnc(C2(O)CC(c3cccc(C(=O)O)c3)C2)cn1 (stereo not drawn)" unit_tag="×10⁻⁶ cm/s" recorded_measurement=38.6

Each molecule below has a reported value. Please supply its Papp B→A.
1. O=C(O)c1cccc(N2CC(O)(c3cnc(OCc4c(-c5c(Cl)cccc5Cl)noc4C4CC4)cn3)C2)c1
2. O=C(O)c1cccc(C2CC(O)(c3ccc(OCc4c(-c5c(Cl)cccc5Cl)noc4C4CC4)cc3Cl)C2)c1 (stereo not drawn) [Compound M3, reference compound]

stdout:
1. 33.3
2. 11.6

stdin: Name the recorded Papp B→A for O=C(O)c1cccc(C2CC(O)(c3cnc(OCc4c(-c5c(Cl)cccc5Cl)noc4C4CC4)cn3)C2)c1 (stereo not drawn) .
stdout: 32.6

* * *

# Test system: C57/BL6 mice fed MCD diet
# test: Pharmacodynamic test in methionine-choline deficient diet (MCD) model of non-alcoholic fatty liver disease
# Type: in vivo
# condition set: MCD mice, after 4 weeks; TM 30 mpk, obeticholic acid 40 mpk
measure name: liver weight (g)
Give bare numbers, in g.

molecule="Cc1cc(C(=O)O)cc(C2CC(O)(c3cnc(OCc4c(-c5c(Cl)cccc5Cl)noc4C(C)C)cn3)C2)c1 (centres unmarked) [TM-09]" test_target="C57/BL6 mice fed MCD diet" unit_tag=g recorded_measurement=0.74

Each molecule below has a reported value. Please supply its liver weight.
1. O=C(O)c1cccc(N2CC(O)(c3cnc(OCc4c(-c5c(Cl)cccc5Cl)noc4C4CC4)cn3)C2)c1 [TM-02]
2. O=C(O)c1cccc(C2CC(O)(c3cnc(OCc4c(-c5c(Cl)cccc5Cl)noc4C4CC4)cn3)C2)c1 (centres unmarked) [TM-01]
3. CC(C)c1onc(-c2c(Cl)cccc2Cl)c1COc1cnc(C2(O)CC(c3cccc(C(=O)O)c3)C2)cn1 (centres unmarked) [TM-06]
4. CC[C@H]1[C@@H](O)[C@@H]2[C@H](CC[C@]3(C)[C@@H]([C@H](C)CCC(=O)O)CC[C@@H]23)[C@@]2(C)CC[C@@H](O)C[C@@H]12 [obeticholic acid, reference compound]

stdout:
1. 0.85
2. 0.89
3. 0.67
4. 0.90
